Assay: recombinant UMI read abundance after kanamycin selection (control-corrected) (log10(CPM+1)); higher = more efficient recombination; extreme values may be limits of the assay; sequences stand for … in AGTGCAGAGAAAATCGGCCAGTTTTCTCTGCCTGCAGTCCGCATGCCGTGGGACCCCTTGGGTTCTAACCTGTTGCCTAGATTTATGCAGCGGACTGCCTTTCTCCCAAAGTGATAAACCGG…AGGTTGGTTTCACT; site = the 11-nt donor;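 note: IS621 bridge recombinase in Escherichia coli cells against a fixed T5 target plasmid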
recombinant UMI read abundance (log10) overview
# print the numeric value only

Reference set (5 entries):
ACTAGATCATGGACCGGTTTTCCCGGTAATCCGTATTTGAG (site ACTAGATCTCT): 2.52
CAAGCGCCATGGACCGGTTTTCCCGGTAATCCGTATTTGTG (site CACGCGCCTCA): 0.0238
AGCTGAGCATGGACCGGTTTTCCCGGTAATCCGTATTTGGG (site AGCTAAGCTCC): 0.0048
GGGGAGTCATGGACCGGTTTTCCCGGTAATCCGTATTTGCC (site TGGGAGTCTGG): 1.02
CATCCCTCATGGACCGGTTTTCCCGGTAATCCGTATTTGTA (site CATCCCTCTTA): 3.33

Quick check: recombinant UMI read abundance (log10) of ATCTATCCATGGACCGGTTTTCCCGGTAATCCGTATTTGCT (site ATCTATCCTAG) ?
1.24

Quick check: recombinant UMI read abundance (log10) of AACCGTGCATGGACCGGTTTTCCCGGTAATCCGTATTTGAT (site AACCGTGCTAT) ?
1.37
